Test: viability loss in pontine glioma line – cell-based, SU-DIPG-XXV, MIPE5.0, CellTiter-Glo, qHTS, dose response (AID 1347065);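 note: cells exposed to compound for 48 hours before ATP readout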
Details: CellTiter-Glo ATP luminescence
Records with an inconclusive call do not appear. Calls of active or inactive are those of the source. No cut-off is given here; in the data, nearly all actives have AC50 up to about 26 µM.

Compound	AC50
CC(C(=O)O)c1cccc(C(=O)c2ccccc2)c1 (stereo unspecified)	inactive
O=C(/C=C/C=C/c1ccc2c(c1)OCO2)N1CCCCC1	inactive
Nc1ccn(C2CO[C@H](CO)O2)c(=O)n1 (stereo partly specified)	inactive
FC(F)c1nc2ccccc2n1-c1nc(N2CCOCC2)nc(N2CCOCC2)n1	0.417 µM (active)
Cc1[nH]c(=O)c(C#N)cc1-c1ccc2nccn2c1	inactive
Cn1ccc2cc3c(cc21)CCN3C(=O)Nc1cccnc1	inactive
